Test system: Rattus norvegicus
Test: Ex vivo potency in for eicosanoid generation in inflammatory exudate of rat 3 hr after peroral administration
Assay type: functional
Conditions: po
Would you kindly list ED50 for each of these compounds?
Report the value in mg/kg with no unit label.

Problem: Given `COC1(c2cc(F)cc(OCc3ccc4c(c3)n(C)c(=O)n4C)c2)CCOCC1` , respond with its ED50.
Result: 1.5

Problem: Retrieve ED50 measured for COC1(c2cc(F)cc(OCc3ccc4c(ccc(=O)n4C)c3)c2)CCOCC1 [ZD-2138] and print it.
Result: 0.3

Problem: For the compound CC(c1cc2ccccc2s1)N(O)C(N)=O (configuration not stated) [ZILEUTON] , give its reported ED50.
Result: 3

Problem: Find the measured ED50 of `COC1(c2cc(F)cc(OCc3ccc4nccnc4c3)c2)CCOCC1` and report it.
Result: 30

Problem: Please indicate ED50 recorded for `COC1(c2cc(F)cc(OCc3ccc4c(c3)sc(=O)n4C)c2)CCOCC1`
Result: 1.5

Problem: Quote ED50 reported for `COC1(c2cc(F)cc(OCc3ccc4c(c3)ncc(=O)n4C)c2)CCOCC1` please.
Result: 1.5

Problem: Report ED50 for `COC1(c2cccc(OCc3ccc4ccccc4c3)c2)CCOCC1`
Result: 10

Problem: # return recorded ED50 for entry `COC1(c2cccc(OCc3ccc4c(ccc(=O)n4C)c3)c2)CCOCC1`
Result: 3

====

Would you kindly list log10 of IC50 for each of these compounds?
Molecular target: Polyunsaturated fatty acid 5-lipoxygenase (Homo sapiens, UniProt P09917)
Sequence (P09917 whole entry): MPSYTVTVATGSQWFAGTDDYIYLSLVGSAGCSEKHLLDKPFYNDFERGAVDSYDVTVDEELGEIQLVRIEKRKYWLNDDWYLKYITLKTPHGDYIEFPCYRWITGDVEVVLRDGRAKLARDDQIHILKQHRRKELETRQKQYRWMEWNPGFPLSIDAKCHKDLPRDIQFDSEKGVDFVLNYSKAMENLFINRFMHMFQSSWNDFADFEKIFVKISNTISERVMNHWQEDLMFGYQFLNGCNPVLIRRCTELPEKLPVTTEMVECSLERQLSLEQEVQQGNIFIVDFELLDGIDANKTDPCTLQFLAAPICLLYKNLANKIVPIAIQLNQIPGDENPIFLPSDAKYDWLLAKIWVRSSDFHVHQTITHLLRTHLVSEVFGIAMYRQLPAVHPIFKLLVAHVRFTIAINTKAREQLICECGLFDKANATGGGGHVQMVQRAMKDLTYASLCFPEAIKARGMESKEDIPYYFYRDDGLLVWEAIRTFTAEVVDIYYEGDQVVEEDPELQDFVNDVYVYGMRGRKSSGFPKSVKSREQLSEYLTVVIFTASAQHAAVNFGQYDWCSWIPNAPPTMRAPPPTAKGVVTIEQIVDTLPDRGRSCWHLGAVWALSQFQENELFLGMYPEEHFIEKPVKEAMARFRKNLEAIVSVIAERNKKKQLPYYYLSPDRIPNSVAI
Assay: In vitro inhibition of leukotriene B4 synthesis in human whole blood by inhibiting 5-lipoxygenase
Assay type: tissue-based
Hello, just confirming the data are log10 of IC50 with units of nM.

Problem: Fill in: log10 of IC50 on Polyunsaturated fatty acid 5-lipoxygenase (Homo sapiens, UniProt P09917), entry `COC1(c2cc(F)cc(OCc3ccc4c(c3)ncc(=O)n4C)c2)CCOCC1`
Result: 1.70

Problem: Using Polyunsaturated fatty acid 5-lipoxygenase (Homo sapiens, UniProt P09917) as the test system, report measured log10 of IC50 of `COC1(c2cccc(OCc3ccc4ccc(=O)n(C)c4c3)c2)CCOCC1` .
Result: 2.30

Problem: Fetch value of log10 of IC50 on Polyunsaturated fatty acid 5-lipoxygenase (Homo sapiens, UniProt P09917) for `COC1(c2cccc(OCC#Cc3ccccc3)c2)CCOCC1` .
Result: 1.85

Problem: Enter measured log10 of IC50, system Polyunsaturated fatty acid 5-lipoxygenase (Homo sapiens, UniProt P09917), for the compound shown: COC1(c2cc(F)cc(OCc3ccc4c(ccc(=O)n4C)c3)c2)CCOCC1 [ZD-2138]
Result: 1.30

Problem: State log10 of IC50 (Polyunsaturated fatty acid 5-lipoxygenase (Homo sapiens, UniProt P09917)) of `COC1(c2cc(F)cc(OCc3ccc4ncncc4c3)c2)CCOCC1` .
Result: 2.30

Problem: Report value only: log10 of IC50, Polyunsaturated fatty acid 5-lipoxygenase (Homo sapiens, UniProt P09917), `COC1(c2cc(OCc3ccc4ccccc4c3)ccc2C)CCOCC1`
Result: 4.60

Problem: Enter log10 of IC50 (test system Polyunsaturated fatty acid 5-lipoxygenase (Homo sapiens, UniProt P09917)) for `COC1(c2cccc(OCc3ccc4ccccc4c3)c2)CCC(=O)CC1`
Result: 3.53

Problem: Give measured log10 of IC50 for `COC1(c2cc(F)cc(OCc3ccc4nc(O)ccc4c3)c2)CCOCC1` (Polyunsaturated fatty acid 5-lipoxygenase (Homo sapiens, UniProt P09917)).
Result: 2.78

Problem: Provide log10 of IC50, system Polyunsaturated fatty acid 5-lipoxygenase (Homo sapiens, UniProt P09917), entry `COC1(c2cccc(OCc3ccc4ccccc4c3)c2)CCOCC1`
Result: 1.85

Problem: Quote Polyunsaturated fatty acid 5-lipoxygenase (Homo sapiens, UniProt P09917) log10 of IC50 for entry CCC(OC)(c1ccc(OCc2ccc3ccccc3c2)cc1)c1nccs1 (configuration not stated) .
Result: 4.60

Problem: For Polyunsaturated fatty acid 5-lipoxygenase (Homo sapiens, UniProt P09917), give log10 of IC50 of the listed compound: `COC1(c2cc(F)cc(OCc3cc4ccccc4n(C)c3=O)c2)CCOCC1`
Result: 2.60

Problem: Please look at `COC1(c2ccc(OCc3ccc4ccccc4c3)cc2)CCOCC1` and tell me its recorded log10 of IC50 on Polyunsaturated fatty acid 5-lipoxygenase (Homo sapiens, UniProt P09917).
Result: 4.28

Problem: Look up and report measured log10 of IC50 (Polyunsaturated fatty acid 5-lipoxygenase (Homo sapiens, UniProt P09917)) for the following compound: `COC1(c2cccc(OCc3ccc4ccccc4c3)c2)CCCCC1`
Result: 3.41

Problem: Quote Polyunsaturated fatty acid 5-lipoxygenase (Homo sapiens, UniProt P09917) log10 of IC50 for entry `COC1(c2cccc(OCc3ccc4ccccc4c3)c2)CCS(=O)(=O)CC1` .
Result: 4.03

Problem: // output log10 of IC50; input `COC1(c2cccc(OCc3ccc4ccccc4c3)c2)CCSCC1` ; system Polyunsaturated fatty acid 5-lipoxygenase (Homo sapiens, UniProt P09917)
Result: 2.60

Problem: Give log10 of IC50 for COC1(c2cccc(OCc3ccc4ccccc4c3)c2)CCOC1 (configuration not stated) tested on Polyunsaturated fatty acid 5-lipoxygenase (Homo sapiens, UniProt P09917).
Result: 2.85

Problem: Write log10 of IC50 of `COC1(c2cc(F)cc(OCc3ccc4c(c3)oc(=O)n4C)c2)CCOCC1` ; system used: Polyunsaturated fatty acid 5-lipoxygenase (Homo sapiens, UniProt P09917)
Result: 2.30

Problem: Write down measured log10 of IC50 (Polyunsaturated fatty acid 5-lipoxygenase (Homo sapiens, UniProt P09917)) for this compound. `COC1(c2cc(F)cc(OCc3ccc4c(c3)n(C)c(=O)n4C)c2)CCOCC1`
Result: 1.90

Problem: Identify measured log10 of IC50 obtained with Polyunsaturated fatty acid 5-lipoxygenase (Homo sapiens, UniProt P09917) for `CCOC(C)=O.COC1(c2cc(F)cc(OCc3ncc4ccccc4n3)c2)CCOCC1` .
Result: 2.30

Problem: For Polyunsaturated fatty acid 5-lipoxygenase (Homo sapiens, UniProt P09917), give log10 of IC50 of the listed compound: COC1(c2cccc(OCc3ccc4ccccc4c3)c2)CC[S+]([O-])CC1 (configuration not stated)
Result: 3.62

Problem: # return log10 of IC50 of COC(C)(c1cccc(OCc2ccc3ccccc3c2)c1)c1nccs1 (configuration not stated) (system: Polyunsaturated fatty acid 5-lipoxygenase (Homo sapiens, UniProt P09917))
Result: 2.70
